tested on: P. berghei GFP ANKA malaria strain PbGFPCON; test: Dose-response efficacy in the P. berghei malaria mouse model; assay type: in vivo, female NMRI mice; details: single oral dose 24 h postinfection, parasitemia 72 h postinfection
metric: ED90 (effective dose causing a 90% reduction in parasitemia) (mg/kg)
Give bare numbers, in mg/kg.

For every record below, what is its ED90 (effective dose causing a 90% reduction in parasitemia)?
1. C[C@H]1Cc2c([nH]c3cc(F)ccc23)[C@@]2(N1)C(=O)Nc1ccc(Cl)cc12 [(+)-5]
2. C[C@H]1Cc2c([nH]c3ccc(F)cc23)[C@@]2(N1)C(=O)Nc1ccc(Cl)cc12 [(+)-4]
3. C[C@H]1Cc2c([nH]c3cc(Cl)c(F)cc23)[C@@]2(N1)C(=O)Nc1ccc(Cl)cc12 [(+)-7 (KAE609)]
4. C[C@H]1Cc2c([nH]c3cc(Cl)ccc23)[C@@]2(N1)C(=O)Nc1ccc(Cl)cc12 [(+)-3]
5. C[C@H]1Cc2c([nH]c3ccccc23)[C@@]2(N1)C(=O)Nc1ccc(Cl)cc12 [(+)-1]
6. C[C@H]1Cc2c([nH]c3ccc(Cl)cc23)[C@@]2(N1)C(=O)Nc1ccc(Cl)cc12 [(+)-2]
7. C[C@H]1Cc2c([nH]c3cc(F)c(F)cc23)[C@@]2(N1)C(=O)Nc1ccc(Cl)cc12 [(+)-6]

38.1
16.7
5.6
17.9
15.3
17.4
17.3

----------
test: Intrinsic clearance in mouse liver microsomes; type: in vitro ADME; conditions: mouse, liver microsomes; per mg protein; read-out: Hepatic CLint in mouse liver microsomes
metric: microsomal CLint (µL/min/mg)
Answers are plain numbers, in µL/min/mg.

Which microsomal CLint is reported for this compound? C[C@H]1Cc2c([nH]c3cc(Cl)c(F)cc23)[C@@]2(N1)C(=O)Nc1ccc(Cl)cc12 [(+)-7 (KAE609)]
28

----------
test: HT-equilibrium solubility; assay type: physicochemical; conditions: aqueous buffer, thermodynamic from solid; pH 6.8, HT-equilibrium solubility
metric: Solubility (µM)
Numbers only, in µM.

Which Solubility is reported for this compound? C[C@H]1Cc2c([nH]c3cc(Cl)c(F)cc23)[C@@]2(N1)C(=O)Nc1ccc(Cl)cc12 [(+)-7 (KAE609)]
39

----------
test system: Caco-2 cells; assay: Caco-2 permeability; type: in vitro ADME; settings: apical to basolateral
I'd be grateful if you could share measured Caco-2 Papp (A-B) for these entries.

| molecule | Caco-2 Papp (A-B) |
| --- | --- |
| C[C@@H]1Cc2c([nH]c3cc(F)c(F)cc23)[C@]2(N1)C(=O)Nc1ccc(Cl)cc12 [(−)-6] | 4.8 10-6 cm/sec |
| C[C@H]1Cc2c([nH]c3cc(Cl)ccc23)[C@@]2(N1)C(=O)Nc1ccc(Cl)cc12 [(+)-3] | 41.7 10-6 cm/sec |
| C[C@@H]1Cc2c([nH]c3cc(Cl)c(F)cc23)[C@]2(N1)C(=O)Nc1ccc(Cl)cc12 [(−)-7] | 1.73 10-6 cm/sec |
| C[C@H]1Cc2c([nH]c3ccc(F)cc23)[C@@]2(N1)C(=O)Nc1ccc(Cl)cc12 [(+)-4] | 7.66 10-6 cm/sec |
| C[C@H]1Cc2c([nH]c3cc(F)ccc23)[C@@]2(N1)C(=O)Nc1ccc(Cl)cc12 [(+)-5] | 4.33 10-6 cm/sec |

For every record below, what is its Caco-2 Papp (A-B)?
1. C[C@H]1Cc2c([nH]c3ccccc23)[C@@]2(N1)C(=O)Nc1ccc(Cl)cc12 [(+)-1]
2. C[C@H]1Cc2c([nH]c3cc(F)c(F)cc23)[C@@]2(N1)C(=O)Nc1ccc(Cl)cc12 [(+)-6]

1: 7.19 10-6 cm/sec; 2: 5.55 10-6 cm/sec

Ref: paper PMC4335872
